The origin of these recorded values is patent US20060106102A1.

Test system: antigen-specific T cell activation (splenic T lymphocytes from mBSA-immunised mice)
Test: antigen-specific (mBSA) activation of splenic T lymphocytes in vitro, 3H-thymidine incorporation
Format: cell-based, C57BL6/J mice
Conditions: Mus musculus, T-cell, mBSA 10 μg/ml; read-out: EC50 (T cell activation suppressed by 50% compared to vehicle-only-treated cells)
Procedure: After a further seven (7) days mice were killed and spleens collected aseptically into Hanks buffered saline solution (HBSS). A single cell suspension was prepared in Petri dishes by flushing DMEM through the organ using a 26G needle and 2 mL syringe. The resulting cell suspension was centrifuged for 5-7 minutes and supernatant discarded. […] Scintillation counts were read on a Wallac beta-emnission counter. […]
Criterion: EC50 strictly less than 10 µM. Met: 1. Not met: -1.

- COC(=O)c1ccc2ccc(O)cc2c1 [Compound 45, Methyl 7-hydroxy-2-naphanoate ester]: -1
- COc1ccc2cc(C)c(C(=O)O)cc2c1Br [Compound 40]: 1
- CCCCCCCCCCCCCCCCCCCCOC(=O)c1ccc2cc(O)ccc2c1 [Compound 19]: -1
- COC(=O)c1ccc2c(N)c(OC)ccc2c1 [Compound 49]: 1
- COC(=O)c1ccc2cc(O)ccc2c1 [Compound 15, Methlyl-6-hydroxy-2-naphthoate]: -1

INPUT: Just wondering, is EC50 of COC(=O)c1ccc2ccc(OC)cc2c1 [Compound 44, Methyl 7-methoxy-2-naphthoate ester] below 10 µM?
OUTPUT: -1

INPUT: Just wondering, is EC50 of COc1ccc2cc(C)c(C(=O)O)cc2c1 [Compound 39] below 10 µM?
OUTPUT: -1

INPUT: Just wondering, is EC50 of COc1cc2ccccc2cc1OC [Compound 2, 6,7-dimethoxynaphthalene] below 10 µM?
OUTPUT: -1

INPUT: Just wondering, is EC50 of CCOC(=O)c1ccc2cc(O)ccc2c1O [Compound 28, Ethyl 1,6-dihydroxy-2-naphthaote] below 10 µM?
OUTPUT: 1

INPUT: Just wondering, is EC50 of O=C(O)CCCCCOC(=O)c1ccc2cc(O)ccc2c1 [Compound 22] below 10 µM?
OUTPUT: 1
